# Tested on: T47D
# Procedure Text: Induction of apoptosis in human T47D cells assessed as caspase activation after 24 hrs by HTS assay
# Format: functional, cell-based
pEC50: −log10 of the molar value.
Outcome Measure: pEC50

[[record]]
chemical_string = "COc1ccc(N(C)c2nc(Cl)nc3ccccc23)cc1"
tested_on = "T47D"
observed_result = 8.70

[[record]]
chemical_string = "Cc1nc(N(C)c2ccc(N(C)C)nc2)c2ccccc2n1"
tested_on = "T47D"
observed_result = 7.82

[[record]]
chemical_string = "Cc1nc(N(C)c2ccc(N=[N+]=[N-])cc2)c2ccccc2n1"
tested_on = "T47D"
observed_result = 7.96

[[record]]
chemical_string = "Cc1nc(N(C)c2ccc(O)cc2)c2ccccc2n1"
tested_on = "T47D"
observed_result = 7.07

[[record]]
chemical_string = "COc1ccc(N(C)c2nc(C)nc3ccccc23)cc1F"
tested_on = "T47D"
observed_result = 8.70

[[record]]
chemical_string = "COc1ccc(N(C)c2nc(CCl)nc3ccccc23)cc1"
tested_on = "T47D"
observed_result = 7.32

[[record]]
chemical_string = "COc1ccc(N(C)c2nc(CO)nc3ccccc23)cc1"
tested_on = "T47D"
observed_result = 8.70

[[record]]
chemical_string = "COc1ccc(N(C)c2nc(NC/C=C(\\C)CCC=C(C)C)nc3ccccc23)cc1"
tested_on = "T47D"
observed_result = 6.54

[[record]]
chemical_string = "COc1ccc(N(C)c2nc(CF)nc3ccccc23)cc1"
tested_on = "T47D"
observed_result = 8.70

[[record]]
chemical_string = "COc1ccc(N(C)c2nc(CN(C)C)nc3ccccc23)cc1"
tested_on = "T47D"
observed_result = 5.74

[[record]]
chemical_string = "COc1ccc(N(C)c2nc(C)nc3ccccc23)nc1"
tested_on = "T47D"
observed_result = 7.80

[[record]]
chemical_string = "CSc1ccc(N(C)c2nc(C)nc3ccccc23)cc1"
tested_on = "T47D"
observed_result = 8.52


###

# Test system: T47D
# Procedure Text: Induction of apoptosis in human T47D cells assessed as caspase activation after 24 hrs by HTS assay
# Format: functional, cell-based
Outcome Measure: EC50

[[record]]
chemical_string = "COc1ccc(N(C)c2nc(C)nc3ccccc23)cc1OC"
tested_on = "T47D"
observed_result = "0.01 µM"

[[record]]
chemical_string = "Cc1nc(N(C)c2ccc(F)cc2)c2ccccc2n1"
tested_on = "T47D"
observed_result = "0.42 µM"

[[record]]
chemical_string = "COc1ccc(N(C)c2nc(N(C)C)nc3ccccc23)cc1"
tested_on = "T47D"
observed_result = "0.015 µM"

[[record]]
chemical_string = "COc1ccc(N(C)c2nc(NN)nc3ccccc23)cc1"
tested_on = "T47D"
observed_result = "0.023 µM"

[[record]]
chemical_string = "CCOc1ccc(N(C)c2nc(C)nc3ccccc23)cc1"
tested_on = "T47D"
observed_result = "0.004 µM"

[[record]]
chemical_string = "Cc1nc(N(C)c2ccc(N)cc2)c2ccccc2n1"
tested_on = "T47D"
observed_result = "0.18 µM"

[[record]]
chemical_string = "COc1ccc(N(C)c2nc(C)nc3ccccc23)c(F)c1"
tested_on = "T47D"
observed_result = "0.004 µM"

[[record]]
chemical_string = "COc1ccc(N(C)c2nc(N(C)C(C)=O)nc3ccccc23)cc1"
tested_on = "T47D"
observed_result = "0.009 µM"

[[record]]
chemical_string = "CC(=O)Nc1ccc(N(C)c2nc(C)nc3ccccc23)cc1"
tested_on = "T47D"
observed_result = "0.059 µM"

[[record]]
chemical_string = "COc1cnc(N(C)c2nc(C)nc3ccccc23)cn1"
tested_on = "T47D"
observed_result = "0.053 µM"

[[record]]
chemical_string = "Cc1nc(N(C)c2ccc(OC(F)F)cc2)c2ccccc2n1"
tested_on = "T47D"
observed_result = "0.009 µM"

[[record]]
chemical_string = "CCc1ccc(N(C)c2nc(C)nc3ccccc23)cc1"
tested_on = "T47D"
observed_result = "0.031 µM"

[[record]]
chemical_string = "CNc1nc(N(C)c2ccc(OC)cc2)c2ccccc2n1"
tested_on = "T47D"
observed_result = "0.008 µM"

[[record]]
chemical_string = "Cc1nc(N(C)c2ccc(N(C)C)cc2)c2ccccc2n1"
tested_on = "T47D"
observed_result = "0.016 µM"

[[record]]
chemical_string = "Cc1nc(N(C)c2ccc([N+](=O)[O-])cc2)c2ccccc2n1"
tested_on = "T47D"
observed_result = "0.74 µM"

